Source: patent US20150118229A1

Experiment: Human PK, multiple ascending dose Study M13-845 Substudy 1
Assay type: in vivo
Conditions: human, in vivo, oral, 12 mg, 12 mg BID, Day 14, mean; read-out: AUC12
Observation Type: AUC (ng·h/mL)
Field: numeric (ng·h/mL). Do not append units.

INPUT: So what does the record say about AUC for CC[C@@H]1CN(C(=O)NCC(F)(F)F)C[C@@H]1c1cnc2cnc3[nH]ccc3n12 [Compound 1] ?
OUTPUT: 271

====

Assay: in vivo
Conditions: both, beagle, dog, po, 3 mg/kg/day
Observation Type: AUC (ng·h/mL)
Kindly answer with a numeric value in ng·h/mL, unit omitted.

INPUT: What does the data say about its AUC? Entry: CC[C@@H]1CN(C(=O)NCC(F)(F)F)C[C@@H]1c1cnc2cnc3[nH]ccc3n12
OUTPUT: 2200
